IFNγ [pg/mL] anti-CD3/CD28 listing for selected molecules.
Test system: Pan T cells isolated from C57BL6 splenocytes
Experiment: T cell function assays (IFNγ and TNFα in supernatants)
Assay type: cell-based, mouse
Conditions: 0.3 μM compound, 3 days, anti-CD3/CD28 stimulation
attribute.measured: IFNγ [pg/mL] anti-CD3/CD28 (pg/mL)

1. O=C1CN(c2c(O)cc3c(c2F)C[C@H](NCCC2(C(F)(F)F)CC2)CC3)S(=O)(=O)N1 (single isomer, unassigned) [Compound 148]; 168.4
2. C[C@@H](O)CCN[C@@H]1CCc2cc(O)c(N3CC(=O)NS3(=O)=O)c(F)c2C1 (single isomer, unassigned) [Compound 307]; 66.7
3. O=C1CN(c2c(O)cc3c(c2F)C[C@H](NCCC(F)F)CC3)S(=O)(=O)N1 (single isomer, unassigned) [Compound 260]; 139.6
